# ASSAY SYSTEM: Norepinephrine α2C receptor (Homo sapiens, UniProt P18825)
# Sequence (P18825 whole entry): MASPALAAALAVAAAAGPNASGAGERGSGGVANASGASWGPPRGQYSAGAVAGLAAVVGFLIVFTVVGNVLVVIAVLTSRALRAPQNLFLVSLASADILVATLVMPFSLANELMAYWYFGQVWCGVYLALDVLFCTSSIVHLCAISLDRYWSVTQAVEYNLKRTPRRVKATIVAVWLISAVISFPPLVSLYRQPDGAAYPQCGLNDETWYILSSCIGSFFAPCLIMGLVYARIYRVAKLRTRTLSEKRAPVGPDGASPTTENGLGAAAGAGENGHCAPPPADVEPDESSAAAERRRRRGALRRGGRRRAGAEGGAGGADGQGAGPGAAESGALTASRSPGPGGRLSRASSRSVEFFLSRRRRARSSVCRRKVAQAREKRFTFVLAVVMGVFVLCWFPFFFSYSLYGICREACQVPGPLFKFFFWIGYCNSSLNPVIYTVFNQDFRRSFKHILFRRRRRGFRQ
# MEASUREMENT NOTES: In vitro receptor binding, norepinephrine α2C
# CONDITION DETAILS: cloned cells expressing human receptors; read-out: Binding Affinities (Ki; nM) Norepinephrine α2C
MEASURED ATTRIBUTE: Ki

# lookup: Norepinephrine α2C receptor (Homo sapiens, UniProt P18825) Ki, key = O=C1[C@@H]2[C@H]3CC[C@H](C3)[C@@H]2C(=O)N1C[C@@H]1CCCC[C@H]1CN1CCN(c2nsc3ccccc23)CC1 [Lurasidone]
10.8 nM

* * *

# ASSAY SYSTEM: Norepinephrine α1 receptor
# MEASUREMENT NOTES: In vitro receptor binding, norepinephrine α1 (rat)
# CONDITION DETAILS: rat; read-out: Binding Affinities (Ki; nM) Norepinephrine α1
MEASURED ATTRIBUTE: Ki (nM)
A number alone suffices; assume nM.

Quick one: give measured Ki for O=C1[C@@H]2[C@H]3CC[C@H](C3)[C@@H]2C(=O)N1C[C@@H]1CCCC[C@H]1CN1CCN(c2nsc3ccccc23)CC1 [Lurasidone]
47.9

* * *

# ASSAY SYSTEM: Histamine H1 receptor (Cavia porcellus)
# Sequence (P31389 whole entry): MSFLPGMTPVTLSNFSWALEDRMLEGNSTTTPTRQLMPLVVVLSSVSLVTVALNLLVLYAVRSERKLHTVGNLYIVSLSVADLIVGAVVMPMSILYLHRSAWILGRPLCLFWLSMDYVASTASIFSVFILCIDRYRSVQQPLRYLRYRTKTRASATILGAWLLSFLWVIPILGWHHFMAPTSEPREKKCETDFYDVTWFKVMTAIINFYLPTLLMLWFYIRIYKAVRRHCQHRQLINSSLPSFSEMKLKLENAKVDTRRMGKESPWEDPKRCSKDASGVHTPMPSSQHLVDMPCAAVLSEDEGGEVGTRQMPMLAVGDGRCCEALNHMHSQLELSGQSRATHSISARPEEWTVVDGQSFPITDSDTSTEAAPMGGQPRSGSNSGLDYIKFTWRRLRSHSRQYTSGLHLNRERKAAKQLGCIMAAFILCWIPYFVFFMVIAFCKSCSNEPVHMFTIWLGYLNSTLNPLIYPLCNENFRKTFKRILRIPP
# MEASUREMENT NOTES: In vitro receptor binding, histamine H1 (guinea pig)
# CONDITION DETAILS: guinea pig; read-out: Binding Affinities (Ki; nM) Histamine H1
MEASURED ATTRIBUTE: Ki

Give Ki; test system Histamine H1 receptor (Cavia porcellus); compound `O=C1[C@@H]2[C@H]3CC[C@H](C3)[C@@H]2C(=O)N1C[C@@H]1CCCC[C@H]1CN1CCN(c2nsc3ccccc23)CC1`
> 1000 nM

* * *

# ASSAY SYSTEM: UniProt:K7GSR7
# Sequence (K7GSR7 1-457): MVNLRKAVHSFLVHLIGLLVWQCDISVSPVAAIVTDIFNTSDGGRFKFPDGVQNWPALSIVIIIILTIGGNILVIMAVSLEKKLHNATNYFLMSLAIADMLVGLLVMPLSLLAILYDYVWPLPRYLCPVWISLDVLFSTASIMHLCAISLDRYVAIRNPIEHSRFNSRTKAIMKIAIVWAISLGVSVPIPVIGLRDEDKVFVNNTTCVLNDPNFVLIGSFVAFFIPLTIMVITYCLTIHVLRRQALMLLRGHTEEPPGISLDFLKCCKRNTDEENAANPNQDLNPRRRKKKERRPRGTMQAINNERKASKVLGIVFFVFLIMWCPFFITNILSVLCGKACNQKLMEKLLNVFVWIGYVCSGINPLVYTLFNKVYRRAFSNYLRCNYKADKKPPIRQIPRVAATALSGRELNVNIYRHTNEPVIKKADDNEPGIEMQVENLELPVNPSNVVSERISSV
# Format: binding, porcine
# CONDITION DETAILS: porcine; read-out: Binding Affinities (Ki; nM) Serotonin 5-HT2c
MEASURED ATTRIBUTE: Ki (nM)
The response must be a number in nM with no trailing unit.

State its Ki for this compound: O=C1[C@@H]2[C@H]3CC[C@H](C3)[C@@H]2C(=O)N1C[C@@H]1CCCC[C@H]1CN1CCN(c2nsc3ccccc23)CC1 [Lurasidone]
415

* * *

# ASSAY SYSTEM: Dopamine D3 receptor (Homo sapiens, UniProt P35462)
# Construct: expressed in transfected cells
# Sequence (P35462 whole entry): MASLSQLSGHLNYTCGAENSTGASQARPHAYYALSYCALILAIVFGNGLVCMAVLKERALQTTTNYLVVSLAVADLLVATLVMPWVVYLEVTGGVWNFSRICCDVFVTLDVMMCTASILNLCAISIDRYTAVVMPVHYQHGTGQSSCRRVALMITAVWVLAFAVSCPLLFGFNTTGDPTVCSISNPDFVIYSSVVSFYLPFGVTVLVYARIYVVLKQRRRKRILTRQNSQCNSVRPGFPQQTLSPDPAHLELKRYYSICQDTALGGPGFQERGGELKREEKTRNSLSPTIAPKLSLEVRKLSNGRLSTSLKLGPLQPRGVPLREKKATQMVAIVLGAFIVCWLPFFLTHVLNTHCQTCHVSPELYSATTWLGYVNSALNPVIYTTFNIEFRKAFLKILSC
# MEASUREMENT NOTES: In vitro receptor binding, dopamine D3
# CONDITION DETAILS: cloned cells expressing human receptors; read-out: Binding Affinities (Ki; nM) Dopamine D3
MEASURED ATTRIBUTE: Ki (nM)
Answer format: numeric, nM implied, no suffix.

Could you please provide reported Ki for O=C1[C@@H]2[C@H]3CC[C@H](C3)[C@@H]2C(=O)N1C[C@@H]1CCCC[C@H]1CN1CCN(c2nsc3ccccc23)CC1 [Lurasidone] ? Thanks!
15.7

* * *

# ASSAY SYSTEM: Dopamine D4 receptor (Homo sapiens)
# Sequence (P21917 whole entry): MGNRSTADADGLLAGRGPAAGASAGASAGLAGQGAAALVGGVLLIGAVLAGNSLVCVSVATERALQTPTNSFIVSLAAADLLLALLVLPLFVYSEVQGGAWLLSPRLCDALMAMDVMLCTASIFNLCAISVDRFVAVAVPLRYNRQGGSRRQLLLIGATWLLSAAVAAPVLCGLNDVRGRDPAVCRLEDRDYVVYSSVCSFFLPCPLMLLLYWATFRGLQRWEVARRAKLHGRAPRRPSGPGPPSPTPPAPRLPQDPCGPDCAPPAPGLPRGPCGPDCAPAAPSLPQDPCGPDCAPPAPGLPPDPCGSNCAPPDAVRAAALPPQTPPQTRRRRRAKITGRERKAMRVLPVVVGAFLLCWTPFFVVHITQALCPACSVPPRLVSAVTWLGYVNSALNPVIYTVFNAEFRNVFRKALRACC
# MEASUREMENT NOTES: In vitro receptor binding, dopamine D4
# CONDITION DETAILS: cloned cells expressing human receptors; read-out: Binding Affinities (Ki; nM) Dopamine D4
MEASURED ATTRIBUTE: Ki (nM)
Quick note: give the figure in nM, leave out the unit.

Give a short answer stating reported Ki for `O=C1[C@@H]2[C@H]3CC[C@H](C3)[C@@H]2C(=O)N1C[C@@H]1CCCC[C@H]1CN1CCN(c2nsc3ccccc23)CC1` .
29.7
